- SUBJECT OF TEST: Jun bZIP R272A;Fos bZIP K153A (human;human, UniProt P05412;P01100 252-315;137-200, R272A|K153A)
- Sequence (P05412 252-315 R272A, chain 1 of 2): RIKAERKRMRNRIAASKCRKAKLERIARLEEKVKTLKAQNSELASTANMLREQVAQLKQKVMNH
- Sequence (P01100 137-200 K153A, chain 2 of 2): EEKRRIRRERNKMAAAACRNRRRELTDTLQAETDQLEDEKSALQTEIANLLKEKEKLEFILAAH
- TEST SUMMARY: ITC
pKd: −log10 of the molar value.
ASSAY ENDPOINT: pKd

- TRE duplex 15-mer (dsDNA) DNA 1: CGCGTGACTCACCCC DNA 2: GGGGTGAGTCACGCG: 6.02
